Biological target: Adenosine receptor A1 (Cavia porcellus, UniProt P47745)
Sequence (P47745 whole entry): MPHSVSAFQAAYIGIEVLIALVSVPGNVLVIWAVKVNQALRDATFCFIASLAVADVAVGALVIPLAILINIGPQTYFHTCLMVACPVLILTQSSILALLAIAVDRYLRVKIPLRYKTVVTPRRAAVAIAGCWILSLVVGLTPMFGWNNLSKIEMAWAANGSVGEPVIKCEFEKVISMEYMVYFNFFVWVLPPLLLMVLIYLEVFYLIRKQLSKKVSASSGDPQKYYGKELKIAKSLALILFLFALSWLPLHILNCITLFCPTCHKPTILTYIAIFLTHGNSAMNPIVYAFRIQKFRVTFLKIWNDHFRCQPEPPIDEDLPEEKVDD
Experiment: Binding affinity against adenosine A1 receptor of cerebral cortex using [3H]CPX as a radioligand
Assay type: tissue-based
pKi: −log10 of the molar value.
parameter measured: pKi

[[record]]
molecule_smiles = "CCCn1c(=O)n(C)c(=O)c2c1ncn2CCCN(C)C"
tgt = "Adenosine receptor A1 (Cavia porcellus, UniProt P47745)"
readout_relation = "<"
numeric_result = 3.70

[[record]]
molecule_smiles = "CCCn1c(=O)n(C)c(=O)c2c1ncn2CCC(=O)O"
tgt = "Adenosine receptor A1 (Cavia porcellus, UniProt P47745)"
readout_relation = "<"
numeric_result = 3.70

[[record]]
molecule_smiles = "C=CCn1c(=O)c2[nH]cnc2n(CCC)c1=O"
tgt = "Adenosine receptor A1 (Cavia porcellus, UniProt P47745)"
readout_relation = "="
numeric_result = 5.77

[[record]]
molecule_smiles = "CCCn1c(=O)n(C)c(=O)c2c1ncn2CCC(C)=O"
tgt = "Adenosine receptor A1 (Cavia porcellus, UniProt P47745)"
readout_relation = "="
numeric_result = 4.52

[[record]]
molecule_smiles = "CCCn1c(=O)n(CC(C)=O)c(=O)c2[nH]cnc21"
tgt = "Adenosine receptor A1 (Cavia porcellus, UniProt P47745)"
readout_relation = "="
numeric_result = 4.94

[[record]]
molecule_smiles = "CCCn1c(=O)n(CCCOC)c(=O)c2[nH]cnc21"
tgt = "Adenosine receptor A1 (Cavia porcellus, UniProt P47745)"
readout_relation = "="
numeric_result = 4.91

[[record]]
molecule_smiles = "CCCn1c(=O)n(CCC(=O)O)c(=O)c2[nH]cnc21"
tgt = "Adenosine receptor A1 (Cavia porcellus, UniProt P47745)"
readout_relation = "<"
numeric_result = 3.70

[[record]]
molecule_smiles = "CCCn1c(=O)n(CC(=O)O)c(=O)c2[nH]cnc21"
tgt = "Adenosine receptor A1 (Cavia porcellus, UniProt P47745)"
readout_relation = "<"
numeric_result = 3.70

[[record]]
molecule_smiles = "CCCn1c(=O)n(C)c(=O)c2c1ncn2CCN(C)C"
tgt = "Adenosine receptor A1 (Cavia porcellus, UniProt P47745)"
readout_relation = "<"
numeric_result = 3.70

[[record]]
molecule_smiles = "CCCn1c(=O)n(CCC(N)=O)c(=O)c2[nH]cnc21"
tgt = "Adenosine receptor A1 (Cavia porcellus, UniProt P47745)"
readout_relation = "="
numeric_result = 4.50

[[record]]
molecule_smiles = "CCCn1c(=O)n(CCCO)c(=O)c2[nH]cnc21"
tgt = "Adenosine receptor A1 (Cavia porcellus, UniProt P47745)"
readout_relation = "="
numeric_result = 4.92

[[record]]
molecule_smiles = "CC(=O)CCCCn1c(=O)c2c(ncn2C)n(C)c1=O"
tgt = "Adenosine receptor A1 (Cavia porcellus, UniProt P47745)"
readout_relation = "="
numeric_result = 3.74

[[record]]
molecule_smiles = "CCCn1c(=O)n(C)c(=O)c2c1ncn2CC(=O)O"
tgt = "Adenosine receptor A1 (Cavia porcellus, UniProt P47745)"
readout_relation = "<"
numeric_result = 3.70

